These data points were gathered from PubChem BioAssay AID2060618.

- Tested on: 454973-116-R2-J3-PDC spheroids, percent test/control viability
- protocol summary: Anticancer human tumor 454973-116-R2-J3-PDC patient-derived pancreatic carcinoma cell line growth inhibition [CLK]; active = viability on the fitted dose curve at most 10% of control; inactive = the rest
- experimental parameters: second compound 1 µM; first compound 1 µM; spheroids with HUVEC and MSC
Reply using exactly one outcome from active, inactive

Sample answers from the record:
COc1cccc2c1C(=O)c1c(O)c3c(c(O)c1C2=O)CC(O)(C(=O)CO)CC3OC1CC(N)C(O)C(C)O1 (stereo not given) + CNC(=O)c1ccc(Nc2nc(OC3CCCC3)c3c(-c4ccc5nc(C)oc5c4)c[nH]c3n2)c(OC)c1 | active
Nc1ccccc1NC(=O)c1ccc(CNC(=O)OCc2cccnc2)cc1 + CNC(=O)c1ccc(Nc2nc(OC3CCCC3)c3c(-c4ccc5nc(C)oc5c4)c[nH]c3n2)c(OC)c1 | inactive
Nc1ccn(C2OC(CO)C(O)C2(F)F)c(=O)n1 (stereo not given) + CN1CCN(c2cc(C(=O)Nc3cc4cc(-c5cnn(C)c5)ccc4cn3)ccn2)CC1 | active
COC1C=CCC(C)C(C)S(=O)(=O)NC(=O)c2ccc3c(c2)N(CC2CCC21)CC1(CCCc2cc(Cl)ccc21)CO3 (stereo not given) + CNC(=O)c1ccc(Nc2nc(OC3CCCC3)c3c(-c4ccc5nc(C)oc5c4)c[nH]c3n2)c(OC)c1 | inactive

// query Any idea what this test logged for CC1COCCN1c1cc(C2(S(C)(=N)=O)CC2)nc(-c2ccnc3[nH]ccc23)n1 (stereo not given) + CNC(=O)c1ccc(Nc2nc(OC3CCCC3)c3c(-c4ccc5nc(C)oc5c4)c[nH]c3n2)c(OC)c1 ?
// result inactive

###

# key: entry, value: viability, T/C
- System: 454973-116-R2-J3-PDC spheroids, percent test/control viability
- protocol summary: Anticancer human tumor 454973-116-R2-J3-PDC cell line growth inhibition [CLK];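 note: spheroids exposed to compounds for 7 days before readout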
- experimental parameters: second compound 1 µM; first compound 0.0316 µM; stronger effect = lower value; spheroids with HUVEC and MSC
Only the number, expressed in %, is required.

Known results for molecules:
C#Cc1c(F)ccc2cc(O)cc(-c3ncc4c(N5CC6CCC(C5)N6)nc(OCC56CCCN5CC(F)C6)nc4c3F)c12 (stereo not drawn) + CN1CCN(c2cc(C(=O)Nc3cc4cc(-c5cnn(C)c5)ccc4cn3)ccn2)CC1 | 0.11
CC(CO)NC(=O)c1cc(-c2ccc(Cl)cc2)nn(-c2cnn(C)c2)c1=O (stereo not drawn) + CNC(=O)c1ccc(Nc2nc(OC3CCCC3)c3c(-c4ccc5nc(C)oc5c4)c[nH]c3n2)c(OC)c1 | 33.7

// query Would you please give the reported viability, T/C of COc1c(OCCCN2CCOCC2)ccc2c3n(c(=NC(=O)c4cnc(N)nc4)nc12)CCN3 + CNC(=O)c1ccc(Nc2nc(OC3CCCC3)c3c(-c4ccc5nc(C)oc5c4)c[nH]c3n2)c(OC)c1 with 454973-116-R2-J3-PDC spheroids, percent test/control viability?
// result 22.2
